Consider the following molecules and their measured viability readings.
# System: primary AML patient cells (S072)
# EXPERIMENTAL_PROTOCOL: viability relative to DMSO control (fraction); higher = less drug effect (more viable cells)
# SETTINGS: 0.04 µM; 48 h

See these solved cases before continuing.
COc1cccc2c1C(=O)c1c(O)c3c(c(O)c1C2=O)C[C@@](O)(C(C)=O)C[C@@H]3O[C@H]1C[C@H](N)[C@H](O)[C@H](C)O1 [Daunorubicin]    0.844
C=CC(=O)N1CCC[C@@H](n2nc(-c3ccc(Oc4ccccc4)cc3)c3c(N)ncnc32)C1 [Ibrutinib]    0.913

Write down viability measured for item CC(C)(C)C[C@@H]1N[C@@H](C(=O)N[C@H]2CC[C@H](O)CC2)[C@H](c2cccc(Cl)c2F)[C@]12C(=O)Nc1cc(Cl)ccc12 [MI-773]
0.843

Write down viability measured for item Nc1cccc2c1CN(C1CCC(=O)NC1=O)C2=O (centres undefined) [Lenalidomide]
1.14

----------
# System: primary AML patient cells (S006)
# EXPERIMENTAL_PROTOCOL: viability relative to DMSO control (fraction); higher = less drug effect (more viable cells)
# SETTINGS: 0.6 µM; 48 h
MEASURE: viability
Hey, just send me the number, nothing else.

See these solved cases before continuing.
Cc1cc(Nc2ncc(Cl)c(Nc3ccccc3S(=O)(=O)C(C)C)n2)c(OC(C)C)cc1C1CCNCC1    0.773
Nc1nc(Cl)nc2c1ncn2[C@@H]1O[C@H](CO)[C@@H](O)[C@@H]1F    0.351
CCc1nc(C(N)=O)c(Nc2ccc(N3CCC(N4CCN(C)CC4)CC3)c(OC)c2)nc1NC1CCOCC1    0.382

Print primary AML patient cells (S006) viability for `O=C(Nc1cccc(C(F)(F)F)c1)Nc1cc(S(=O)(=O)NC2CC2)ccc1-c1ccsc1` .
1.02

Print primary AML patient cells (S006) viability for `Nc1nc(=S)c2[nH]cnc2[nH]1` .
0.57

----------
Consider the following molecules and their measured viability readings.
# Tested on: primary ALL patient cells (S048)
# EXPERIMENTAL_PROTOCOL: viability relative to DMSO control (fraction); higher = less drug effect (more viable cells)
# SETTINGS: 15 µM; 48 h
Hey, just send me the number, nothing else.

See these solved cases before continuing.
Nc1ncn([C@H]2C[C@H](O)[C@@H](CO)O2)c(=O)n1 [Decitabine (Dacogen)]    0.82
N#Cc1ccnc(N2C(=O)CC[C@H]2C(=O)N(c2cncc(F)c2)[C@H](C(=O)NC2CC(F)(F)C2)c2ccccc2Cl)c1 [AG-120]    0.745
CNC(=O)c1cc(Oc2ccc(NC(=O)Nc3ccc(Cl)c(C(F)(F)F)c3)cc2)ccn1 [Sorafenib]    1.03
O=C(Nc1cccc(C(F)(F)F)c1)Nc1cc(S(=O)(=O)NC2CC2)ccc1-c1ccsc1 [AGI-6780]    0.61
CCN1CCN(Cc2ccc(Nc3ncc(F)c(-c4cc(F)c5nc(C)n(C(C)C)c5c4)n3)nc2)CC1    0.00487

Please turn your attention to the following entry.
Write down viability measured for item Cc1cc(Nc2ncc(Cl)c(Nc3ccccc3S(=O)(=O)C(C)C)n2)c(OC(C)C)cc1C1CCNCC1 [Ceritinib]
0.0153

----------
# Test system: primary AML patient cells (S021)
# EXPERIMENTAL_PROTOCOL: viability relative to DMSO control (fraction); higher = less drug effect (more viable cells)
# SETTINGS: 0.12 µM; 48 h
MEASURE: viability
Hey, just send me the number, nothing else.

See these solved cases before continuing.
C[C@@H](Oc1cc(-c2cnn(C3CCNCC3)c2)cnc1N)c1c(Cl)ccc(F)c1Cl [Crizotinib]    1.1
O=C(c1cc(Cc2n[nH]c(=O)c3ccccc23)ccc1F)N1CCN(C(=O)C2CC2)CC1 [Olaparib]    0.846
N#CC[C@H](C1CCCC1)n1cc(-c2ncnc3[nH]ccc23)cn1 [Ruxolitinib]    0.801
Nc1ncn([C@H]2C[C@H](O)[C@@H](CO)O2)c(=O)n1 [Decitabine (Dacogen)]    0.973

Write down viability measured for item Cc1cc(Nc2ncc(Cl)c(Nc3ccccc3S(=O)(=O)C(C)C)n2)c(OC(C)C)cc1C1CCNCC1 [Ceritinib]
0.934
